The measurements presented in this section are drawn from the RNAGym collection of RNA variant scans (doi:10.7554/elife.80360).

B1: CPEB3 Ribozyme (parent)
chain: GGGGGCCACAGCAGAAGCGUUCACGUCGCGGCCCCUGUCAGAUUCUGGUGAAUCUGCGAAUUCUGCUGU

# Variants of: B1
# method notes: self-cleavage, relative activity (ratio to wild type); higher = more cleavage; co-transcriptional
Quick reference: self-cleavage of the listed items.
Form field (numeric): enter value without unit.

Solved entries:
mutation label | observation type | measured
A40G U53G | self-cleavage | 0.813
G2U U44G | self-cleavage | 0.0788
G56U A60U | self-cleavage | 0.293

Need self-cleavage of A40G C63G , thanks. 0.563

// repeat for C18G C24A and report 0.105

// repeat for C24A U44A and report 0.705

// repeat for G48C G65A and report 0.926

// repeat for A59G G65U and report 0.694

// repeat for C7U U20C and report 0.158

// repeat for G3A C29A and report 0.149

// repeat for A8G A10U and report 0.69

// repeat for G25A G56U and report 0.2

// repeat for G1A U26C and report 0.138

// repeat for G17U G56U and report 0.2

// repeat for A60G U61G and report 0.533

// repeat for G1C U64C and report 0.179

// repeat for C22A C33U and report 0.218
